Assignment: determine reported Neut IC50 (ug/ml) subtype A for the given binders.
# Measurement Target: RSV F protein of subtype A strain A2, on virus (respiratory syncytial virus subtype A …, UniProt P03420 26-574)
# Test Details: cell-based or functional assay
Express it in µg/mL; write the number only.

The binder identified as ADI-15602 (antibody, V domains shown, IgG) VH: EVQLLESGGGVVQPGKSLRLSCVASGFTFGDYGMHWVRQAPGKGLEWVAVISDGGSTKYYADSVKGRFTIARDNSKNTLNLQMNSLRAEDTAVYYCAKDLAWIFGLGASYMDVWGQGTLVTVSS VL: DIQLTQSPGTLSLSPGERATLSCRASQTVSSSYLAWYQQKPGQAPRLLIYDASSRATGIPDRFSGSGSGTDFTLTISRLEPEDFAVYYCQQYGSSPFGLTFGGGTKVEIK registered its Neut IC50 (ug/ml) subtype A at 0.046

Briefly, Neut IC50 (ug/ml) subtype A measured for ADI-15592 (antibody, V domains shown, IgG; also called Antibody Number 159) VH: EVQLVESGGALVKPGGSLRLSCVGTGLTFTTAYMSWARQAPGKGLEWVGRIKSKSDGGTTEYPTPVKGRFTISRDESKNTLYLQMNSLKIEDTAVYYCTTDRGITARPIFDSWGQGTLVTVSS VL: QSVLTQPPSVSGALGRRVTISCTGSSSNIGAGYDVHWYRQLPGTAPKLLIYGNTKRPSGVPDRFSGSKYATSASLAITGLQAEDDADYYCQSYDGGLSGYVFGTGTQLTVL : 12.3
